Field: protein stability index. Provide a value for each of the variants that follow.
B1: TRIM39 (parent)
chain: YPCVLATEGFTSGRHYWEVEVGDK

# Variants of: B1
# EXPERIMENT DESCRIPTION: protein stability index of a GFP-peptide fusion (GPS, HEK-293T) (PSI 1-6); higher = more stable;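 note: lentivirally expressed fusions sorted by FACS into six bins by GFP to DsRed ratio, PSI derived from sequencing read proportions per bin multiplied by bin number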
# EXPERIMENTAL CONDITIONS: c terminus: a fixed tail appended

Example cases with answers are listed next.
YPCVLATEGFYSGRHYWEVEVGDK [T11Y] ... 3.04
QPCVLATEGFTSGRHYWEVEVGDK [Y1Q] ... 3.71
YPCVSATEGFTSGRHYWEVEVGDK [L5S] ... 2.26
YPCVLATEGFTSGRHYWEVEVGIK [D23I] ... 1.76
YPCVLATEGFTSGTHYWEVEVGDK [R14T] ... 2.27
YPCVLATEGFTSGRHYWEVEVGDI [K24I] ... 2.65
YPCVLTTEGFTSGRHYWEVEVGDK [A6T] ... 3
YPCMLATEGFTSGRHYWEVEVGDK [V4M] ... 2.06
YPCVLATEGFTSGRHYWEVEVGDM [K24M] ... 1.95
YPCVLATEGFTSGWHYWEVEVGDK [R14W] ... 1.66

# batch size: 8; output protein stability index per entry
1. YPCVLATEGYTSGRHYWEVEVGDK [F10Y]
2. YPCVLATEGFTSGRHYWEVVVGDK [E20V]
3. YPCVLATEGFTSGRHYWEVMVGDK [E20M]
4. YPCVLYTEGFTSGRHYWEVEVGDK [A6Y]
5. YPCVLATEGLTSGRHYWEVEVGDK [F10L]
6. YPCVLATEGFTDGRHYWEVEVGDK [S12D]
7. YPCVLATEGFTSGYHYWEVEVGDK [R14Y]
8. YPCVLATEGFTGGRHYWEVEVGDK [S12G]

[2.26, 2.31, 1.59, 1.43, 1.86, 2.79, 1.95, 1.6]

# batch size: 6; output protein stability index per entry
1. YPCVLATEGFFSGRHYWEVEVGDK [T11F]
2. YPCVLATEGFTSGRHYWSVEVGDK [E18S]
3. YPCVLATEGFTSGRGYWEVEVGDK [H15G]
4. YPCLLATEGFTSGRHYWEVEVGDK [V4L]
5. YPCVLATEMFTSGRHYWEVEVGDK [G9M]
6. YPCVLATEGFTSMRHYWEVEVGDK [G13M]

2.55
2.72
1.98
2.13
1.66
1.59

# batch size: 3; output protein stability index per entry
1. YPCVLAHEGFTSGRHYWEVEVGDK [T7H]
2. YPCVLATFGFTSGRHYWEVEVGDK [E8F]
3. YPCVLATHGFTSGRHYWEVEVGDK [E8H]

1. 1.59
2. 2.06
3. 1.93

# batch size: 5; output protein stability index per entry
1. YPDVLATEGFTSGRHYWEVEVGDK [C3D]
2. YPCVLATEGFTSGRSYWEVEVGDK [H15S]
3. YPCVLATEGFTSGREYWEVEVGDK [H15E]
4. YPCVLATEGFTSGRHYWKVEVGDK [E18K]
5. YPCVLATEGFTSGRHYWEVEVGDA [K24A]

1: 1.9; 2: 2.16; 3: 3.05; 4: 1.73; 5: 1.28
